System: 521955-158-R2-J5-PDC complex spheroids, viability;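 further: spheroids also contain HUVEC endothelial cells and mesenchymal stem cells as stroma; compound exposure lasted seven days before the viability read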
Test Method Notes: Anticancer human tumor 521955-158-R2-J5-PDC patient-derived pancreatic carcinoma cell line growth inhibition [RAS]
Experimental Parameters: second compound 0.003 µM; first compound 0.0316 µM; hits give low values
viability, T/C values for the compounds below.
Numeric only. Scale: %

Compound	viability, T/C (%)
Nc1ccn(C2OC(CO)C(O)C2(F)F)c(=O)n1 (stereo not drawn) + CCn1c(-c2cc(N3CCN(C)CC3)cnc2C(C)OC)c2c3cc(ccc31)-c1csc(n1)CC(NC(=O)C1CC1C)C(=O)N1CCCC(N1)C(=O)OCC(C)(C)C2	36
CC1(O)CCCC1n1c(=O)c(C(F)F)cc2cnc(NC3CCN(S(C)(=O)=O)CC3)nc21 (stereo not drawn) + CCn1c(-c2cc(N3CCN(C)CC3)cnc2C(C)OC)c2c3cc(ccc31)-c1csc(n1)CC(NC(=O)C1CC1C)C(=O)N1CCCC(N1)C(=O)OCC(C)(C)C2	35.6
C=CC(=O)Nc1cc(Nc2nccc(-c3cn(C)c4ccccc34)n2)c(OC)cc1N(C)CCN(C)C + CCn1c(-c2cc(N3CCN(C)CC3)cnc2C(C)OC)c2c3cc(ccc31)-c1csc(n1)CC(NC(=O)C1CC1C)C(=O)N1CCCC(N1)C(=O)OCC(C)(C)C2	50.2

Sample CC(Nc1ccc2c(c1)OCCn1cc(N3C(=O)OCC3C(F)F)nc1-2)C(N)=O (stereo not drawn) + CCn1c(-c2cc(N3CCN(C)CC3)cnc2C(C)OC)c2c3cc(ccc31)-c1csc(n1)CC(NC(=O)C1CC1C)C(=O)N1CCCC(N1)C(=O)OCC(C)(C)C2 ; viability, T/C observed: 32.7

The compound C=CC(=O)N1CCN(c2nc(OCC3CCCN3C)nc3c(F)c(-c4nc(N)cc(C)c4C(F)(F)F)c(Cl)cc23)C(C)C1 (stereo not drawn) + CCn1c(-c2cc(N3CCN(C)CC3)cnc2C(C)OC)c2c3cc(ccc31)-c1csc(n1)CC(NC(=O)C1CC1C)C(=O)N1CCCC(N1)C(=O)OCC(C)(C)C2 showed viability, T/C equal to 46.7

Entry O=C(c1ccc(F)c(F)c1Nc1ccc(I)cc1F)N1CC(O)([C@@H]2CCCCN2)C1 + CCn1c(-c2cc(N3CCN(C)CC3)cnc2C(C)OC)c2c3cc(ccc31)-c1csc(n1)CC(NC(=O)C1CC1C)C(=O)N1CCCC(N1)C(=O)OCC(C)(C)C2 — recorded viability, T/C = 39

Entry under test: C=CC(=O)Nc1cc(Nc2nccc(-c3cn(C)c4ccccc34)n2)c(OC)cc1N(C)CCN(C)C + CCn1c(-c2cccnc2C(C)OC)c2c3cc(ccc31)N1CCOC(CC(NC(=O)C(C(C)C)N(C)C(=O)C3(F)CCN(C(=O)C#CC(C)(C)N(C)C)CC3)C(=O)N3CCCC(N3)C(=O)OCC(C)(C)C2)C1 . Its viability, T/C was 71.8

viability, T/C in this record for CC(C)NCC(C(=O)N1CCN(c2ncnc3c2C(C)CC3O)CC1)c1ccc(Cl)cc1 (stereo not drawn) + CCn1c(-c2cccnc2C(C)OC)c2c3cc(ccc31)N1CCOC(CC(NC(=O)C(C(C)C)N(C)C(=O)C3(F)CCN(C(=O)C#CC(C)(C)N(C)C)CC3)C(=O)N3CCCC(N3)C(=O)OCC(C)(C)C2)C1 : 81.6
